Sourced from ChEMBL document CHEMBL2311343

assay: Metabolic stability in Han Wistar rat hepatocytes at 1 uM after 30 mins; type: ADME, cell-based, Hepatocyte; conditions: read-out: Stability
quantity-measured: remaining at 0.5 h, 1 µM (%)
Answers are plain numbers, in %.

Data request: Provide one value: measured remaining at 0.5 h, 1 µM of `N[C@@H](Cc1ccc(O[C@H]2C[C@@H](F)C2)cc1)C(=O)O`
Data returned: 97

* * *

experiment: Metabolic stability in Han Wistar rat hepatocytes at 1 uM after 2 mins; assay type: ADME, cell-based, Hepatocyte; details: read-out: Stability
quantity-measured: remaining at 2 min, 1 µM

Data request: Provide one value: measured remaining at 2 min, 1 µM of `N[C@@H](Cc1ccc(O[C@H]2C[C@@H](F)C2)cc1)C(=O)O`
Data returned: 100%
